- Test system: HCC-2998 colon
- ASSAY METHOD TEXT: NCI-60 one-dose screen, 48 h (100 = growth as untreated, 0 = no growth, -100 = all killed)
- CONDITION INFO: 10 µM unless noted
This is part of a sample that, as a whole, favours compounds with a hit. Of some 83,000 tested, about 20% had one in any assay.
molecules and their reported growth
Provide the reading as a plain figure in %.

Incoming: What growth value was documented for this molecule, Cc1cccc(Nc2nc3ccccc3nc2/C=C/c2ccc(F)cc2)c1 ?
Outgoing: 94.2

* * *

- System: NCI-H322M lung
- ASSAY METHOD TEXT: NCI-60 one-dose screen, 48 h
- CONDITION INFO: 10 µM unless noted
About 83,000 compounds went through this panel and 20% of them were active in at least one assay; those are over-represented in the sample as a whole. The source made the active and inactive calls. Rule for the calls: active = growth percent below 10; inactive = the rest.
Please answer using one outcome listed in yes (active), no (inactive)

These recorded examples may help you get a feel for the data.
CC12CC[C@@H]3[C@]4(C)COC(c5c(F)cccc5F)O[C@@H]4CC[C@@]3(C)[C@@H]1CC(C1=CCOC1=O)O2 (stereo not given in full)	no
Cc1ccccc1[C@H]1C(C(=O)c2ccc(Cl)cc2)C2(N[C@@H]1c1ccccc1)C(=O)Nc1ccc(Br)cc12 (stereo not given in full)	no
CCCSc1nc(NCCc2c[nH]c3ccccc23)c(C#N)c(-c2ccc(F)cc2)n1	no
O=C(/C=C/Nc1ccc(Cl)cc1)c1ccc2c(c1)Nc1ccccc1S2	no
CSc1ccc(NC(=O)c2ccc3nn(/C(C#N)=C/c4ccccn4)nc3c2)cc1	yes
S=C(Nc1ccccc1)Nc1ccc(OCc2nc3ccccc3[nH]2)cc1	no
CSc1ccc(C(=O)Nc2ccc3nn(/C(C#N)=C/c4ccccn4)nc3c2)cc1	no
O=C(c1ccccc1)c1ccc2nc(-c3cccc(Cl)c3)[nH]c2c1	no

Incoming: Assay outcome for Cc1cc2nc3c4ccccc4n(CCCN(C)C)c3nc2cc1C : what was it?
Outgoing: yes

Incoming: Assay outcome for CCOC(=O)/C=C/c1cccc2c1C(=O)NC(C)(c1cc3cc(Cl)ccc3oc1=O)N2 (stereo not given) : what was it?
Outgoing: no

* * *

- Test system: IGROV1 ovarian
- ASSAY METHOD TEXT: NCI-60 one-dose screen, 48 h (100 = growth as untreated, 0 = no growth, -100 = all killed)
- CONDITION INFO: 10 µM unless noted
About 83,000 compounds went through this panel and 20% of them were active in at least one assay; those are over-represented in the sample as a whole. Calls of active or inactive are those of the source. How the source made its calls: active means growth percent below 10; inactive means the rest.
molecules and their reported growth

Record excerpt, results attached:
CCCCn1c(O)c(N=Nc2nc(-c3cc4ccccc4oc3=O)cs2)c2cc(Br)ccc21	114% (inactive)
COc1ccc(-c2nc3cc(C)ccc3n2CC(=O)N=Nc2c(O)[nH]c3ccc(Br)cc23)cc1	23.9% (inactive)
C=C1CC[C@@H]2[C@]3(C)COC(c4cn[nH]c4-c4ccccc4)O[C@@H]3CC[C@@]2(C)[C@@H]1C/C=C1/C(=O)OCC1O (some centres undefined)	30.6% (inactive)

Incoming: What growth value was documented for this molecule, COc1ccc(NC(=O)[C@@H](N)Cc2ccccc2)cc1C(=O)Nc1cccc(C2CC(=O)c3c(cc(OC)c(OC)c3OC)O2)c1 (some centres undefined) ?
Outgoing: 74.5% (inactive)

* * *

- Tested on: TK-10 renal
- ASSAY METHOD TEXT: NCI-60 one-dose screen, 48 h (100 = growth as untreated, 0 = no growth, -100 = all killed)
- CONDITION INFO: 10 µM unless noted
Compounds without any hit were thinned out: in the full panel of roughly 83,000, 20% have a hit. Activity calls are given as the source filed them. The calls were made as follows: active = growth percent below 10; inactive = the rest.
MEASURED PARAMETER: growth

Record excerpt, results attached:
O=C(/C=C/c1ccc(-c2ccccc2)cc1)c1nc2ccccc2n1Cc1ccc(Br)cc1	35.3% (inactive)
Cc1ccc(C(=O)CSc2nc3ccc(C)cc3c(=O)n2-c2ccc(F)cc2)cc1	56.3% (inactive)
Cn1cc(-c2nc(N)nnc2-c2c[nH]c3ccc(F)cc23)c2cccnc21	44.6% (inactive)
COc1cc2oc(-c3cccc(C(=O)Nc4ccc(Cl)cc4)c3)cc(=O)c2c(OCCNC(=O)[C@@H](N)CCC(=O)O)c1OC	114% (inactive)

Incoming: What growth value was documented for this compound, COc1cc2c(c(OC)c1OC)C(=O)CC(c1cccc(NC(=O)c3cc(NC(=O)[C@H](C)N)ccc3Cl)c1)O2 (stereo partly drawn) ?
Outgoing: 101% (inactive)

Incoming: What growth value was documented for this compound, Nc1n[nH]c2cccc(C#Cc3cccc(NC(=O)c4cccc(Cl)c4)c3)c12 ?
Outgoing: 49.9% (inactive)

* * *

- Tested on: MOLT-4 leukemia
- ASSAY METHOD TEXT: NCI-60 one-dose screen, 48 h (100 = growth as untreated, 0 = no growth, -100 = all killed)
- CONDITION INFO: 10 µM unless noted
About 83,000 compounds went through this panel and 20% of them were active in at least one assay; those are over-represented in the sample as a whole.
MEASURED PARAMETER: growth (%)
Provide the reading as a plain figure in %.

Record excerpt, results attached:
CC(=O)c1cc(C(=O)c2ccccc2)n2c1ccc1ccccc12	87.6
COc1ccc(NC(=O)[C@H](CO)NC(=O)OC(C)(C)C)cc1C(=O)Nc1cccc(C2CC(=O)c3c(cc(OC)c(OC)c3OC)O2)c1 (stereo partly drawn)	16.2
O=c1cc(-c2ccccc2)oc2cc(OCCCC[P+](c3ccccc3)(c3ccccc3)c3ccccc3)cc(O)c12	-41.7
C#CCOc1ccc(/C=N/Nc2nc(-c3ccc(Cl)cc3)cs2)cc1OC	21.7
O=C(/C=C/c1cccc(OCc2ccc(F)cc2)c1)c1nc2ccccc2[nH]1	-11.2
CC1(c2cc3cc(Br)ccc3oc2=O)NC(=O)c2c(/C=C/C(=O)OC3CC4CCC3(C)C4(C)C)cccc2N1 (stereo not drawn)	47
N#Cc1ccc(/C=N/NC(=O)c2[nH]c3ccc(Br)cc3c2-c2ccccc2)o1	1.36
CC(C)CSc1nc(NCCc2c[nH]c3ccccc23)c(C#N)c(-c2ccc(F)cc2)n1	27.9

Incoming: What growth value was documented for this compound, Cc1cc(=O)oc2cc(OCCCOc3ccc(/C=C/C(=O)Nc4ccccc4N)cc3)ccc12 ?
Outgoing: 12.5

Incoming: What growth value was documented for this compound, NS(=O)(=O)c1ccc(N=Nc2c(O)n(CC(=O)Nc3ccccc3)c3ccccc23)cc1 ?
Outgoing: 7.09

Incoming: What growth value was documented for this compound, CC12CC[C@@H]3[C@]4(C)COC(c5cn[nH]c5-c5ccc(Cl)cc5)O[C@@H]4CC[C@@]3(C)[C@@H]1CC(C1=CCOC1=O)O2 (stereo partly drawn) ?
Outgoing: -16.8

Incoming: What growth value was documented for this compound, NS(=O)(=O)c1ccc(N=Nc2c(O)n(CC(=O)Nc3ccccc3Cl)c3ccccc23)cc1 ?
Outgoing: 26.7

Incoming: What growth value was documented for this compound, CCC(C)(C)c1ccc(OCCCCN2CCN(c3ccncc3)CC2)cc1 ?
Outgoing: 1.66

Incoming: What growth value was documented for this compound, COCOc1ccc2c(=O)c(C)c(C(=O)N[C@@H](Cc3ccccc3)C(O)C(=O)NCCc3ccc(OC)cc3)oc2c1 (stereo partly drawn) ?
Outgoing: 94.8

Incoming: What growth value was documented for this compound, N#Cc1c(-c2cccc3ccccc23)cc(-c2cccc(OCC(=O)O)c2)[nH]c1=O ?
Outgoing: 85.7

Incoming: What growth value was documented for this compound, COc1ccc2cc([C@H](C)C(=O)N/N=C/c3ccc(Br)cc3)ccc2c1 ?
Outgoing: 86.6

Incoming: What growth value was documented for this compound, COC(=O)C[C@](O)(CCCC(C)(C)O)C(=O)O[C@H]1C(OC)=C[C@@]23CCCN2CCc2cc4c(cc2[C@@H]13)OCO4 ?
Outgoing: -6.36

Incoming: What growth value was documented for this compound, O=C(COc1ccc(NC(=O)Nc2ccc(Cl)c(Cl)c2)cc1)N=Nc1c(O)[nH]c2ccc(Br)cc12 ?
Outgoing: -3.16

* * *

- Tested on: BT-549 breast
- ASSAY METHOD TEXT: NCI-60 one-dose screen, 48 h (100 = growth as untreated, 0 = no growth, -100 = all killed)
- CONDITION INFO: 10 µM unless noted
This is part of a sample that, as a whole, favours compounds with a hit. Of some 83,000 tested, about 20% had one in any assay.
MEASURED PARAMETER: growth (%)
Provide the reading as a plain figure in %.

CN1C(=O)/C(=C/c2ccc(C(=O)Nc3ncc(Cc4ccc(Cl)cc4Cl)s3)cc2)SC1=S	31.6
COc1ccc(-c2nc3ccc(C(=O)NN4C(=O)c5ccc([N+](=O)[O-])cc5C4=O)cc3[nH]2)cc1	105

Incoming: What growth value was documented for this compound, O=C(N/N=C/c1ccc(-c2ccc(O)cc2)o1)c1[nH]c2ccc(Br)cc2c1-c1ccccc1 ?
Outgoing: -13.3

Incoming: What growth value was documented for this compound, CC(=O)Nc1cccc(Nc2nc(N[C@H]3CCCc4ccccc43)c3ccccc3n2)c1 ?
Outgoing: 131

Incoming: What growth value was documented for this compound, COc1cc(CNC(=O)/C=C/c2ccc3c(c2)OCO3)ccc1OCc1cn(-c2cccc(C(F)(F)F)c2)nn1 ?
Outgoing: -10.7

Incoming: What growth value was documented for this compound, Cc1cccc(NC(=O)CN2CCN(c3ncnc4c3cnn4-c3ccccc3)CC2)c1 ?
Outgoing: 89.9

Incoming: What growth value was documented for this compound, O=C1NC(=O)/C(=C/c2ccccc2OCc2cc3ccccc3nc2Cl)S1 ?
Outgoing: 78.7
